Test system: SMT-F tumor
assayDetails: In vivo antitumor (photodynamic) activity, SMT-F tumors in DBA/2 mice
Design: species or system DBA/2 Ha-DD mouse
testConditions: 1.0 mg/kg, light 3 h post i.v. injection where stated
readoutName: antitumor / photosensitizing activity

// known answers, use as guide
compound | antitumor / photosensitizing activity
C=CC1=C(C)c2cc3[nH]c(cc4nc(cc5[nH]c(cc1n2)c(C)c5CCC(=O)OC)C(CCC(=O)OC)=C4C)C1(C)C3=CC=C(C(=O)OC)C1C(=O)OC (stereo not drawn) [Compound 36, 8-Vinylbenzoporphyrin Derivative] | activity similar to BPD
C=CC1=C(C)c2cc3[nH]c(cc4nc(cc5[nH]c(cc1n2)C1(C)C5=CC=C(C(=O)OC)C1C(=O)OC)C(C)=C4CCC(=O)OC)c(CCC(=O)OC)c3C (stereo not drawn) [Compound 28, 3-Vinylbenzoporphyrin Derivative] | activity similar to BPD
COC(=O)CCC1=C(C)c2cc3[nH]c(cc4nc(cc5[nH]c(cc1n2)c(CCC(=O)OC)c5C)C(C(C)=O)=C4C)C1=CC=C(C(=O)OC)C(C(=O)OC)C13C (stereo not drawn) [Compound 37, 8-Acetylbenzoporphyrin Derivative] | inactive
COC(=O)CCC1=C(C)c2cc3[nH]c(cc4nc(cc5[nH]c(cc1n2)c(CCC(=O)OC)c5C)C(C(C)=O)=C4C)C1=CC=C(C(=O)OC)C(C(=O)OC)C13C (stereo not drawn) [Compound 23, 8-Acetylbenzoporphyrin Derivative] | inactive
COC(=O)CCC1=C(C)c2cc3[nH]c(cc4nc(cc5[nH]c(cc1n2)c(CCC(=O)OC)c5C)C(C)=C4C(C)=O)C1(C)C3=CC=C(C(=O)OC)C1C(=O)OC (stereo not drawn) [Compound 42, 3 -Acetylbenzoporphyrin Derivative] | inactive

Please report antitumor / photosensitizing activity for every entry that follows.
1. C=CC1=C(C)c2cc3[nH]c(cc4nc(cc5[nH]c(cc1n2)C1(C)C5=CC=C(C(=O)OC)C1C(=O)OC)C(C)=C4CCC(=O)OC)c(CCC(=O)OC)c3C (stereo not drawn) [Compound 41, 3-Vinyl-BPD]
2. C=CC1=C(C)c2cc3[nH]c(cc4nc(cc5[nH]c(cc1n2)c(C)c5CCC(=O)OC)C(CCC(=O)OC)=C4C)C1(C)C3=CC=C(C(=O)OC)C1C(=O)OC (stereo not drawn) [Compound 20, 8-vinylbenzoporphyrin Derivative]
3. COC(=O)CCC1=C(C)c2cc3[nH]c(cc4nc(cc5[nH]c(cc1n2)c(CCC(=O)OC)c5C)C(C)=C4C(C)=O)C1(C)C3=CC=C(C(=O)OC)C1C(=O)OC (stereo not drawn) [Compound 31, 3 -Acetylbenzoporphyrin Derivative]

a:
1. activity similar to BPD
2. activity similar to BPD
3. inactive
